Biological target: baculovirus-expressed VEGF receptor (human flk-1, KDR, VEGFR2) kinase domain (Homo sapiens)
Sequence (P35968 834-1162 limits assumed): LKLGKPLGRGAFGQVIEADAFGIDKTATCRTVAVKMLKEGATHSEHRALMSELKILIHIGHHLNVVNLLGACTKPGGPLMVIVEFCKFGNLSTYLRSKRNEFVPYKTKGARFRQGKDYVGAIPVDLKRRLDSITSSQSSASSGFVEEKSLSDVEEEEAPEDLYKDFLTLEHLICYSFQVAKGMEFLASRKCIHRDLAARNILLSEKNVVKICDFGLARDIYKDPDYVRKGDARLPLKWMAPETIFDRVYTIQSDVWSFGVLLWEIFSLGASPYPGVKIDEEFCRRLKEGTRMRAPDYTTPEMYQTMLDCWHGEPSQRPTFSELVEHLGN
Rule: IC50 below 0.6 µM gives rule met, anything at or above gives rule not met.

input: Please determine if O=C1NC(=O)c2c1c1sc3ccccc3c1c1[nH]c3ccccc3c21 [IV-10] is below 0.6 µM in terms of IC50.
output: rule not met

input: Please determine if O=C1NC(=O)c2c1c1c(c3[nH]c4ccc(Br)cc4c23)-c2ccccc2CC1 [IV-9] is below 0.6 µM in terms of IC50.
output: rule not met

input: Please determine if O=C1NC(=O)c2c1c1c(c3[nH]c4ccccc4c23)-c2ccccc2C1 [IV-1] is below 0.6 µM in terms of IC50.
output: rule met

input: Please determine if Cn1c2ccccc2c2c3c(c4c(c21)-c1ccccc1C4)C(=O)NC3=O [IV-3] is below 0.6 µM in terms of IC50.
output: rule met

input: Please determine if O=C1NC(=O)c2c1c1c(c3[nH]c4ccccc4c23)-c2ccccc2OC1 [IV-11] is below 0.6 µM in terms of IC50.
output: rule met

input: Please determine if O=C1NCc2c1c1c(c3[nH]c4ccccc4c23)-c2ccccc2CC1 [IX-2] is below 0.6 µM in terms of IC50.
output: rule not met

input: Please determine if O=C1NC(=O)c2c1c1ccc3sccc3c1c1[nH]c3ccccc3c21 [XVII] is below 0.6 µM in terms of IC50.
output: rule not met

input: Please determine if O=C1NC(=O)c2c1c1c(c3[nH]c4ncccc4c23)-c2ccccc2CC1 [XIII] is below 0.6 µM in terms of IC50.
output: rule not met

input: Please determine if O=c1[nH]c(=O)c2c1c1c(=O)c3ccccc3c1c1[nH]c3ccccc3c12 [IV-2] is below 0.6 µM in terms of IC50.
output: rule not met

input: Please determine if O=C1NC(=O)c2c1c1c(c3[nH]c4ccccc4c23)-c2ccccc2CC1 [IV-5] is below 0.6 µM in terms of IC50.
output: rule met

input: Please determine if CNC(=S)NCc1ccc2[nH]c3c4c(c5c(c3c2c1)C(=O)NC5=O)CCc1ccccc1-4 [IV-35] is below 0.6 µM in terms of IC50.
output: rule met

input: Please determine if O=C1NCc2c3c(c4c(c21)c1ccccc1n4CCO)-c1ccccc1CC3 [Compound X-4] is below 0.6 µM in terms of IC50.
output: rule met

Values were extracted from patent US7291732B2.
